target or system: T1, Human CXCR2 (human, UniProt P25025 1-360)
T1 construct: Some cell lines carry an N-terminal 3xHA tag; also called hCXCR2; huCXCR2
T1 sequence: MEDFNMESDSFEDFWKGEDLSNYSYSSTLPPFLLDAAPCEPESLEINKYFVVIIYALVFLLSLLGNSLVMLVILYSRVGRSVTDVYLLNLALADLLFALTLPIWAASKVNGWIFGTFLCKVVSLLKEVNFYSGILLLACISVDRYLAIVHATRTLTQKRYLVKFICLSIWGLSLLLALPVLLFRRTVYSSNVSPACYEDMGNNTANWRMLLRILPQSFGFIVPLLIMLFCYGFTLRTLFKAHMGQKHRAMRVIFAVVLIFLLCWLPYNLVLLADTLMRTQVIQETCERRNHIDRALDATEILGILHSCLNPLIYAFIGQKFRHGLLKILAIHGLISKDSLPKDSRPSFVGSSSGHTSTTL
test description: FACS, periplasmic extract vs FMAT Blue Gro-α
Reported FACS Gro-α competition (% inhibition) values are given for each entry in this list.
Give the value, in units of %, as a plain number.

Known FACS Gro-α competition (% inhibition) results, listed for orientation:
binder | quantity kind | assay value
163E3 (VHH, Tested as periplasmic extract (pAX50) and as purified His6-tagged protein (pAX100); also called 163E03; not shown: C-terminal c-myc tag and His6 tag coded by the vector) VHH: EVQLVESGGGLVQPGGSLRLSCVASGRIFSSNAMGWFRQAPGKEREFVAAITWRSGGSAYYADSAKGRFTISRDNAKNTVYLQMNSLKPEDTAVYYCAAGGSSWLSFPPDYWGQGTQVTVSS | FACS Gro-α competition (% inhibition) | 80.1
145C9 (VHH, Tested as periplasmic extract only; also called 145C09; not shown: C-terminal c-myc tag and His6 tag coded by the vector) VHH: EVQLVESGGGLVQAGGSLRLSCAASGFTFDDYAIGWFRQAPGKERERVSCISGSDGSTYYADSVKGRFTISSDNAKNTVYLQMNNLKPEDTAVYYCAAYWGLTLRLWMPPHRYDYWGQGTQVTVSS | FACS Gro-α competition (% inhibition) | 53.5
159B10 (VHH, Tested as periplasmic extract only; not shown: C-terminal c-myc tag and His6 tag coded by the vector) VHH: EVQLVESGGGLVQPGGSLRLSCAASGRTFSSLSMGWFRQAPGKERAFVAALTRNGGYRYYADSVKGRFTISRDVAKKTLYLQMNSLKPEDTAVYYCAADSLSGSDYLGTNLDYWGQGTQVTVSS | FACS Gro-α competition (% inhibition) | 75.8

Record 139A8 (VHH, Tested as periplasmic extract only; also called 139A08; not shown: C-terminal c-myc tag and His6 tag coded by the vector) VHH: EVQLVESGGGLVQAGGSLRLSCAASGRSFSRSAMGWLRQAPGKEREFVAGISWGGDNSYYADSVKGRFTISRDNAKNTVSLQMNSLKPQDTAVYYCAARYRGGAAVAGWEYWGQGTQVTVSS . Reported FACS Gro-α competition (% inhibition): 78.5
